Reported values of pKd for individual entries
# SYSTEM_UNDER_TEST: T1, P985_AMBPA (Amblyomma parvum, UniProt A0A023FT45 25-132);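 further: biolayer interferometry on an Octet system: chemokines at several doses tested against tick chemokine-binding proteins, association, equilibrium and dissociation curves fitted to derive Kd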
# T1 sequence: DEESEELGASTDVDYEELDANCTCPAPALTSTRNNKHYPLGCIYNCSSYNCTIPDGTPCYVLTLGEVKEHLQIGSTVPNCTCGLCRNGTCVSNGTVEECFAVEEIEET
# MEASUREMENT_PROTOCOL: BLI
pKd: −log10 of the molar value.

| BINDER | pKd |
| --- | --- |
| CCL18_HUMAN (ligand) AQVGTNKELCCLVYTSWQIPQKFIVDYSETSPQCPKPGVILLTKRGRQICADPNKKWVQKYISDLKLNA | 6.37 |
| CCL8_HUMAN (ligand, UniProt P80075 24-99, looked up) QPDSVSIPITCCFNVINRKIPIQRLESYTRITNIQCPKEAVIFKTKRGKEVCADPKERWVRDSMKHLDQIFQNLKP | 8.19 |
| CCL1_HUMAN (ligand) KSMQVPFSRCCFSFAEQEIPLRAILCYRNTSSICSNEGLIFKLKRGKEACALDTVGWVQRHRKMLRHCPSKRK | 8.08 |
| CCL4_HUMAN (ligand) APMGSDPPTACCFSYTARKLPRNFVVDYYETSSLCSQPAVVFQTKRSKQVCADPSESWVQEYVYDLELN | 7.34 |
